Values from patent US20240262842A1

Reported pIC50 values for the following compounds.
# SYSTEM TESTED: biotinylated KRAS G12C protein (GMP-PNP loaded) and GST-tagged Ras binding domain of c-RAF (Homo sapiens, UniProt P01116, C118S/C51S/C80L/G12C)
# Sequence (P01116 with tags, fused parts or gaps isoform P01116-2 G12C/C51S/C80L/C118S): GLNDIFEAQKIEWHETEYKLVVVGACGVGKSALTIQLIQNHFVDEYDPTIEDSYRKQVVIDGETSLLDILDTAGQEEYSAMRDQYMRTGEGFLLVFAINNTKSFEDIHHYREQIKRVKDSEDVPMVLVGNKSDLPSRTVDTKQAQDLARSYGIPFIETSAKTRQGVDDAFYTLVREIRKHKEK
# ASSAY SUMMARY: RAS:RAF-RBD binding assay (TR-FRET)
# REPORTED CONDITIONS: 30-minute incubation of compound with KRAS G12C before RAF-RBD; Table 4; read-out: IC50
The value called pIC50 is obtained by taking minus log10 of the concentration in mol/L.

See these solved cases before continuing.
Cc1nc2c3c(c(C(F)(F)F)cc2n1C)-c1cccn2c(C(=O)c4cc(F)c(NC(=O)/C=C/CN5CC6(CCOC6)C5)c(F)c4)cc(c12)CCO3 (single isomer, unassigned) [Example 284] : 7.39
Cc1nc2c3c(c(C(F)(F)F)cc2n1C)-c1cccn2c(C(=O)c4cc(F)c(NC(=O)/C=C/CN5CC6(CCOCC6)C5)c(F)c4)cc(c12)CCO3 [Example 280] : 7.42
Cc1nc2c3c(c(C(F)(F)F)cc2n1C)-c1cccn2c(C(=O)c4cc(F)c(NC(=O)/C=C/CN[C@H]5CCCC[C@H]5O)c(F)c4)cc(c12)CCO3 [Example 265] : 7.91
Cc1nc2c3c(c(C(F)(F)F)cc2n1C)-c1cccn2c(C(=O)c4cc(F)c(NC(=O)C(F)=CCN5CCCC5CO)c(F)c4)cc(c12)CCO3 (centres unmarked) [Example 294] : 7.22

# input for lookup
Q. Report measured pIC50; entry is Cc1nc2c3c(c(C(F)(F)F)cc2n1C)-c1cccn2c(C(=O)c4cc(F)c(NC(=O)/C=C/CN5CCC5CC(C)(C)O)c(F)c4)cc(c12)CCN3C (single isomer, unassigned) [Example 298]
A. 7.38

* * *

# System: MIA PaCa-2 cells
# ASSAY SUMMARY: Growth inhibition activity on KRAS-G12C mutant cell line (CellTiter-Glo 3D)
# Type: cell-based, human
# REPORTED CONDITIONS: MIA PaCa-2, 3-day culture with compound; Table 3
pIC50: −log10 of the molar value.
True means recorded pIC50 is 6 or above; False means it is below 6.

Solved cases below.
CO[C@H]1CC[C@H](NC/C=C/C(=O)Nc2c(F)cc(C(=O)c3cc4c5c(cccn35)-c3c(C(F)(F)F)cc5c(nc(C)n5C)c3OC(C)C4)cc2F)CC1 (some centres unmarked) [Example 43] : True
CO[C@H]1CC[C@H](NC/C=C/C(=O)Nc2c(F)cc(C(=O)c3cc4c5c(cccn35)-c3c(C(F)(F)F)cc5c(nc(C)n5C)c3OC(C)C4)cc2F)CC1 (single isomer, unassigned) [Example 42-2] : True
CO[C@H]1CC[C@H](NC/C=C/C(=O)Nc2c(F)cc(C(=O)c3cn4c5c(cccc35)-c3c(C)cc5c(nc(C)n5C)c3OC[C@H](C)C4)cc2F)CC1 (single isomer, unassigned) [Example 23] : True

// next entry
Q. Item CO[C@H]1CC[C@H](NC/C=C/C(=O)Nc2c(F)cc(C(=O)c3cn4c5c(cccc35)-c3c(C)cc5c(nc(C)n5C)c3OCC4)cc2F)CC1 (single isomer, unassigned) [Example 14-2] with pIC50 of 6 or above?
A. False
